Relative enzyme activity (%) Human serum pH 8.7 by entry:
# EXPERIMENTAL TARGET: X-prolyl dipeptidyl-aminopeptidase in human serum (Homo sapiens)
# Construct: Even if crude enzyme such as human serum is used as enzyme source, the activity is accurately measured; from tissue; host or cells: human serum (normal subjects and patients)
# Sequence (P27487 39-766 limits assumed): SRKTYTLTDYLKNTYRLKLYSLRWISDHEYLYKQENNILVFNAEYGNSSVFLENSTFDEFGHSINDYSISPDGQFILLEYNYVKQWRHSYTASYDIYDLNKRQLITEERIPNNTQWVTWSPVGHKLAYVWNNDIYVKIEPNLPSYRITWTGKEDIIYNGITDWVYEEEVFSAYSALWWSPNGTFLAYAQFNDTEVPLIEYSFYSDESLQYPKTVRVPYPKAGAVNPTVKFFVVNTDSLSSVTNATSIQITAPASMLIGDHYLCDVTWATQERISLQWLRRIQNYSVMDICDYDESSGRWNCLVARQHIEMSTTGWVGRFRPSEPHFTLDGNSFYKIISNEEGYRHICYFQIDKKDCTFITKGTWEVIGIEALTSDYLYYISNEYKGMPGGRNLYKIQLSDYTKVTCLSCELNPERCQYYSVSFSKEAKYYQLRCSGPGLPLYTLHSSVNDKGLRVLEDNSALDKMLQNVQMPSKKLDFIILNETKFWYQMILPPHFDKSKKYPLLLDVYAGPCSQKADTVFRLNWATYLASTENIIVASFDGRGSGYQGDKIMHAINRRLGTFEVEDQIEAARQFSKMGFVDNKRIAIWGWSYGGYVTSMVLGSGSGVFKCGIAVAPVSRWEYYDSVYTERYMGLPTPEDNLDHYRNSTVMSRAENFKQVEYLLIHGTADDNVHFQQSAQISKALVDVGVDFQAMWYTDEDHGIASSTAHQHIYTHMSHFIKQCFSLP
# MEASUREMENT PROTOCOL: Direct photometric assay of substrate hydrolysis (p-nitroaniline liberated, 385 nm) with human serum as enzyme source
# Assay type: biochemical
# MEASUREMENT SETUP: human serum, pH 8.7, 0.15 M glycine-NaOH buffer; glycyl-L-proline p-nitroanilide = 100
Peptide text beside a SMILES is read from it. * marks the point of attachment. pNA = O=[N+]([O-])c1ccc(N*)cc1
PROPERTY MEASURED: Relative enzyme activity (%) Human serum pH 8.7

{"COMPOUND": "N[C@@H](CCC(=O)O)C(=O)N1CCC[C@H]1C(=O)Nc1ccc([N+](=O)[O-])cc1 [L-glutamyl-L-proline p-nitroanilide, L-Glutamyl-L-proline p-nitroanilide] (H-Glu-Pro-pNA)", "UNIT STRING": "%", "RECORDED RESULT": 37}
{"COMPOUND": "Cc1ccc(S(=O)(=O)O)cc1.Cc1ccc(S(=O)(=O)O)cc1.N=C(N)NCCC[C@H](N)C(=O)N1CCC[C@H]1C(=O)Nc1ccc([N+](=O)[O-])cc1 [L-arginyl-L-proline p-nitroanilide] (H-Arg-Pro-pNA)", "UNIT STRING": "%", "RECORDED RESULT": 55}
{"COMPOUND": "C[C@H](N)C(=O)N1CCC[C@H]1C(=O)Nc1ccc([N+](=O)[O-])cc1.Cl [L-alanyl-L-proline p-nitroanilide] (H-Ala-Pro-pNA)", "UNIT STRING": "%", "RECORDED RESULT": 75}
{"COMPOUND": "Cc1ccc(S(=O)(=O)O)cc1.Cc1ccc(S(=O)(=O)O)cc1.NCCCC[C@H](N)C(=O)N1CCC[C@H]1C(=O)Nc1ccc([N+](=O)[O-])cc1 [L-lysyl-L-proline p-nitroanilide] (H-Lys-Pro-pNA)", "UNIT STRING": "%", "RECORDED RESULT": 71}
{"COMPOUND": "N[C@@H](CC(=O)O)C(=O)N1CCC[C@H]1C(=O)Nc1ccc([N+](=O)[O-])cc1 [L-aspartyl-L-proline p-nitroanilide, L-Aspartyl-L-proline p-nitroanilide] (H-Asp-Pro-pNA)", "UNIT STRING": "%", "RECORDED RESULT": 28}
{"COMPOUND": "NCC(=O)N1CCC[C@H]1C(=O)Nc1ccc([N+](=O)[O-])cc1 [glycyl-L-proline p-nitroanilide, Glycyl-L-proline p-nitroanilide] (H-Gly-Pro-pNA)", "UNIT STRING": "%", "RECORDED RESULT": 100}
